Reported values: IC50 for Histone deacetylase 8 (Homo sapiens), one per item.
Give bare numbers, in nM.

See these solved cases before continuing.
Compound	Unit name	IC50
COc1ccc(N)c(NC(=O)c2ccc(CNC(=O)OCc3cccnc3)cc2)c1	nM	4600
O=C(/C=C/c1ccc(NS(=O)(=O)c2ccc(Cl)cc2Cl)cc1)NO	nM	300
COc1ccc(C(=O)CCCCCCCC(=O)NO)cc1	nM	15
O=C(CCCCCCCC(O)c1ccc2ccccc2c1)NO (stereo not given)	nM	35
CC(C)c1cc(C(C)C)c(C(C)C)cc1CS(=O)(=O)Nc1ccc(/C=C\C(=O)NO)cc1	nM	600

Answer for every listed entry: what is its IC50? The entries follow.
1. Nc1ccc(F)cc1NC(=O)c1ccc(CNC(=O)OCc2cccnc2)cc1
2. O=C(CCCCCC(=O)c1ccccc1)NO
3. O=C(NO)c1ccc(CCCc2ccccc2)cc1
4. C=C(CCCCCCCC(=O)NO)c1ccc2ccccc2c1

(A)
[6000, 1500, 1000, 8]

----------
Target: Histone deacetylase 8 (Homo sapiens)
Sequence (Q9BY41 whole entry): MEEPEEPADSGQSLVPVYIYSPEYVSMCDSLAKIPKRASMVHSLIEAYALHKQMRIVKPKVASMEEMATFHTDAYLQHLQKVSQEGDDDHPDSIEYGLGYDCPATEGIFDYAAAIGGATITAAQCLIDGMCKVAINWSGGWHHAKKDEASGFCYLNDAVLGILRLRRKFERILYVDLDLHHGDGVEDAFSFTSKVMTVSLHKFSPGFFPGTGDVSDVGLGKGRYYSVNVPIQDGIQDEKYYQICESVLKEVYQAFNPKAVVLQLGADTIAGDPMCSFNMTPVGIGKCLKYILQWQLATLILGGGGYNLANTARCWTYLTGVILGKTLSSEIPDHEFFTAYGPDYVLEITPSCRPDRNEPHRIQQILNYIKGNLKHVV
pIC50: −log10 of the molar value.
Decision: pIC50 compared against 7; not below it gives yes, below it gives no.

The examples below pair each entry with its known result.
Chemical string	Discrete label
Nc1ccc(Cl)cc1NC(=O)c1ccc(CNC(=O)OCc2cccnc2)cc1	no
COc1ccc(NC(=O)c2ccc(CNC(=O)OCc3cccnc3)cc2)c(N)c1	no

(Q) hey, is pIC50 for this one >= 7? `O=C(Cc1ccc(NS(=O)(=O)c2ccccc2)cc1)NO`
(A) no

(Q) Form field: pIC50 at least 7? Entry: `O=C(CCCCCCC(=O)c1ccc2ccccc2c1)NO`
(A) yes

(Q) State whether the measured pIC50 reaches 7, counting equality as reaching it, for `O=C(CCCCCCC(=O)c1ccccc1)NO`
(A) no

(Q) Could you please find out whether `O=C(CCCCCCC/C(=N\O)c1ccc(-c2ccccc2)cc1)NO` has pIC50 that meets 7 or exceeds it?
(A) yes

(Q) // inclusive: pIC50 at least 7? input: `COc1ccc(C(=O)CCCCCCC(=O)NO)cc1`
(A) no

(Q) Dear colleague, could you confirm whether `O=C(CCCCCCCC(=O)c1ccc(C(F)(F)F)cc1)NO` has pIC50 at or above 7?
(A) yes

(Q) Reported pIC50 at or above 7? `Nc1ccc(NC(=O)c2ccc(CNC(=O)OCc3cccnc3)cc2)cc1`
(A) no

(Q) Could you please find out whether `O=C(CCCCCCCC(=O)c1ccc(N2CCN(c3ccccc3)CC2)cc1)NO` has pIC50 that meets 7 or exceeds it?
(A) yes
